Data provenance: PubChem BioAssay (Tox21)

# protocol details: Caspase-3/7 induction in CHO-K1 cells by small molecules, qHTS cell viability counter screen (AID 1346979); also: nearly all actives have a fitted effect of over 35% in size
# test conditions: CellTiter-Fluor fluorescence, 17 h; series mostly up to 92.4 µM
Results filed as inconclusive are left out. Activity calls are given as the source filed them. Calls follow the shape of the dose curve; as a rule, active = well fitted cell-killing curve with a large enough effect in the repeat runs; inconclusive = weak or mixed curves, or effect the other way; inactive = no such curve, though single readings can be large or run the other way.
Give one outcome, nothing more. List: 1 (yes) = active, 0 (no) = inactive

How was Oc1ccccc1C=NCc1ccccc1 classified in this test?
0 (no)

How was CCCCc1ccc2nc(NC(=O)OC)[nH]c2c1 classified in this test?
1 (yes)

How was CN(C)CCOc1ccccc1Cc1ccccc1 classified in this test?
0 (no)

How was CC(C)(C)C1CCCCC1=O (centres undefined) classified in this test?
0 (no)

How was CCCCC1CCC(=O)O1 (centres undefined) classified in this test?
0 (no)

How was CC1(C)S[C@@H]2[C@H](NC(=O)C(C(=O)O)c3ccccc3)C(=O)N2[C@H]1C(=O)O (some centres undefined) classified in this test?
0 (no)

How was Nc1ccc(Oc2ccc(N)c(N)c2)cc1 classified in this test?
1 (yes)

How was CC(C)NCC(O)COc1ccc(CCOCC2CC2)cc1 (centres undefined) classified in this test?
0 (no)

How was CC(=O)Oc1cc(C(C)C)c(OCCN(C)C)cc1C classified in this test?
0 (no)

How was CC(C)NC[C@@H](O)COc1cccc2ccccc12 classified in this test?
0 (no)

How was CC(C)=CCCC(C)CCOC=O (centres undefined) classified in this test?
0 (no)

How was CCCCN1C[C@H](O)[C@@H](O)[C@H](O)[C@H]1CO classified in this test?
0 (no)

How was CCC1(C)NC(=O)NC1=O (centres undefined) classified in this test?
0 (no)

How was FC(F)(F)c1ccccc1 classified in this test?
0 (no)
